Target: S. cerevisiae Chs1 (Saccharomyces cerevisiae)
Construct: expressed and purified membrane protein, homodimer; residues numbered to 1131; residues 1-377, 699-703, 897-907, 1076-1084 not resolved
Sequence (P08004 1-1131): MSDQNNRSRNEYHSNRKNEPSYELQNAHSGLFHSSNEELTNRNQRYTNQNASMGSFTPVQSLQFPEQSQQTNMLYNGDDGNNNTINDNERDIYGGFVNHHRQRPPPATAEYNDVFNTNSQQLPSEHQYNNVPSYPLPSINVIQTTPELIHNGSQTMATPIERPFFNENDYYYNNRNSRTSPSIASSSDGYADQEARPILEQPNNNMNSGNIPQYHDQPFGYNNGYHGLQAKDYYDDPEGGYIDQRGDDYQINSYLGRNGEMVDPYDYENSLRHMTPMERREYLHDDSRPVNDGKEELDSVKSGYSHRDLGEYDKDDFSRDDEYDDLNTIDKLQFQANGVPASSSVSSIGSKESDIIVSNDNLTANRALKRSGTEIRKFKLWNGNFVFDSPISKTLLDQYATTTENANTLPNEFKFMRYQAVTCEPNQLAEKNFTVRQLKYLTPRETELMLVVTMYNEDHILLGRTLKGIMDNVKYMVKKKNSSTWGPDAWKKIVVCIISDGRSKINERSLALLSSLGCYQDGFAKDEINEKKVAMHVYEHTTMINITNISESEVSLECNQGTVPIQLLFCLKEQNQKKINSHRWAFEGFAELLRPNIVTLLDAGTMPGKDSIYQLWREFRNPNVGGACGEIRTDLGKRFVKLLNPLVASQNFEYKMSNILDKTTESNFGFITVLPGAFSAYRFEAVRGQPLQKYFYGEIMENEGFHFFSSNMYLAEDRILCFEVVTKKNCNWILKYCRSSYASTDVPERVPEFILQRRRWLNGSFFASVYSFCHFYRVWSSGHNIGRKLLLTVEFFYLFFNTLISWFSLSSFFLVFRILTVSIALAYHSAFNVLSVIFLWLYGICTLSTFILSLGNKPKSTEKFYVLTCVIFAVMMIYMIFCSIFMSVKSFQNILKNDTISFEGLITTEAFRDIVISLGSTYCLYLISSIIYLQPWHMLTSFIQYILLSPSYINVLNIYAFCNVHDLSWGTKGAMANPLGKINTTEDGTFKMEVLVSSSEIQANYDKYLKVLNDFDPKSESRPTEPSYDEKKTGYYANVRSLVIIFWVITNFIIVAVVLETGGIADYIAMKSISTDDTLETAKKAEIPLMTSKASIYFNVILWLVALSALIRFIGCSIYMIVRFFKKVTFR
Measurement Description: in vitro chitin synthase activity assay; cryo-EM structure of the complex at […] A also solved
Type: biochemical

- Mol Smiles: "C[C@@H]([C@H](N)C(=O)N[C@H](C(=O)O)[C@H]1O[C@@H](n2ccc(=O)[nH]c2=O)[C@H](O)[C@@H]1O)[C@H](O)c1ccc(O)cn1"
  Target: "S. cerevisiae Chs1 (Saccharomyces cerevisiae)"
  IC50, nM: 367
